Readout name: melting point (°C)

{"Compound structure": "CO[C@H]1c2ccn3c(C)c(C)nc3c2N[C@H](c2ccccc2)[C@]1(C)O", "melting point (°C)": 190}
{"Compound structure": "Cc1nc2c3c(ccn2c1C)[C@@H](O)[C@@](C)(O)[C@@H](c1ccccc1)N3", "melting point (°C)": 180}
{"Compound structure": "Cc1nc2c3c(ccn2c1C)C(=O)[C@@](C)(O)[C@@H](c1ccccc1)N3", "melting point (°C)": 240}

----------
Each entry below carries its recorded melting point.

Answered examples (3):
{"Compound structure": "Cc1nc2c3c(ccn2c1C)[C@@](C)(O)[C@H](O)[C@@H](c1ccccc1)N3", "Readout name": "melting point", "Experimental value": "137 to 138 °C"}
{"Compound structure": "Cc1nc2c3c(ccn2c1C)C(=O)[C@](O)(Cc1ccccc1)[C@@H](c1ccccc1)N3", "Readout name": "melting point", "Experimental value": "248 to 251 °C"}
{"Compound structure": "Cc1nc2c3c(ccn2c1C)[C@H](O)[C@](O)(Cc1ccccc1)[C@@H](c1ccccc1)N3", "Readout name": "melting point", "Experimental value": "115 to 122 °C"}

Exercise: Read off the recorded melting point for C=C1c2ccn3c(C)c(C)nc3c2N[C@H](c2ccccc2)[C@H]1O
Solution: 199 to 202 °C

Recorded values, source patent US6916825B2.
